Measured log10 of TGI accompanies every entry in the list below.
system: ACHN renal; assay: NCI tumour cell line growth inhibition, 48 h
Parameter value (number): base-10 log of TGI in µM.

Examples from the recorded data:
[
  {
    "compound": "Cc1ccc(NC(=O)/C(Cl)=C(/Cl)C(=O)O)cc1",
    "observed": 1.48
  },
  {
    "compound": "CN1CCN(c2ccc3nc(-c4ccc5nc(-c6ccc(O)cc6)[nH]c5c4)[nH]c3c2)CC1",
    "observed": 2.82
  },
  {
    "compound": "COc1ccc2[nH]c3c(C)c4ccnc(NCCCN(C)CCCNc5ccc6ncn7c8ccccc8c(=O)c5c67)c4c(C)c3c2c1",
    "observed": -0.04
  },
  {
    "compound": "O=Cc1ccc(CCl)cc1",
    "observed": 1.73
  },
  {
    "compound": "C=C(CN1CC2C[C@](C(=O)OC)(c3cc4ccccc4[nH]3)C1C(OC)C2OC)S(=O)(=O)c1ccccc1 (some centres not stated)",
    "observed": 0.97
  },
  {
    "compound": "CCN(CC)CCNc1ccc2nnn3c4ccc(O)cc4c(=O)c1c23",
    "observed": 1.15
  },
  {
    "compound": "CN(Cc1cc(Cl)cc(Cl)c1O)Cc1c(O)ccc2ccccc12",
    "observed": 1.49
  },
  {
    "compound": "CC1=CC(=O)CC(C)(C)C1/C=C/C(C)=C/C=C/C(C)=C/C=C/C=C(C)/C=C/C=C(C)/C=C/C1=C(C)CC(O)CC1(C)C (configuration not stated)",
    "observed": 1.87
  }
]

Query :: Suppose we examine the compound COC(=O)C1=C(C(=O)OC)C2(C)Nc3ccccc3C2=C(c2ccccc2)C1 (configuration not stated) ; what log10 of TGI value has been reported?
Result :: 1.79

Query :: For the compound C[C@@H](NC(=O)c1ccc(CNC(=O)/C=C/c2cccc(Oc3ccccc3)c2)cc1)c1ccccc1 , what log10 of TGI is on record?
Result :: 1.56

Query :: Item O=C1C=CC(=O)c2c1ccc1c3ccccc3n(-c3ccccc3[N+](=O)[O-])c21 has what recorded log10 of TGI?
Result :: 0.54

###

tested on: A498 renal; assay: NCI tumour cell line growth inhibition, 48 h
Is TGI at least 5 µM? Then label 1. If not, label 0.

Check out these entries, answers already filled in.
[
  {
    "compound": "CC1CCC2(CC1)NC1=C(CC(C)CC1)C1=C2CC(C)CC1 (stereo not given)",
    "tested.on": "A498 renal",
    "label.value": "label 1"
  },
  {
    "compound": "CC(=O)Nc1nnc(S(C)(=O)=O)s1",
    "tested.on": "A498 renal",
    "label.value": "label 1"
  },
  {
    "compound": "CCCCCCCCC(=O)OCC(CS[As](C)C)OC(=O)CCCCCCCC (stereo not given)",
    "tested.on": "A498 renal",
    "label.value": "label 1"
  },
  {
    "compound": "COc1cc2c(cc1OC)C(=O)/C(=C/c1cc(OC)c(OC)c(OC)c1)C2",
    "tested.on": "A498 renal",
    "label.value": "label 1"
  },
  {
    "compound": "CC(=O)OC1CC2C3CCC4C[C@@H](NC(=O)C=C(C)C)CC[C@]4(C)C3CC[C@]2(C)[C@H]1C(C)N(C)C (stereo not given in full)",
    "tested.on": "A498 renal",
    "label.value": "label 0"
  },
  {
    "compound": "COC(=O)C(Cc1nc2ccccc2nc1C)/C(=N\\NC(N)=O)C(=O)Nc1cccc([N+](=O)[O-])c1 (stereo not given)",
    "tested.on": "A498 renal",
    "label.value": "label 1"
  },
  {
    "compound": "CCOC(=O)c1c2c(c(O)c3ccccc3c(O)n(Cc3ccccc3)c1C)C(=O)C=CC2=O",
    "tested.on": "A498 renal",
    "label.value": "label 1"
  },
  {
    "compound": "CC(C)(C)CC(N)=O",
    "tested.on": "A498 renal",
    "label.value": "label 1"
  }
]

Query :: Reported TGI at or above 5 µM? COc1ccc2cc(-c3nc(N)nc(N4N=C(C)CC4(C)C)n3)c(=N)oc2c1
Result :: label 1

Query :: Is TGI for CC1=CC(=O)CC(C)(C)C1/C=C/C(C)=C/C=C/C(C)=C/C=C/C=C(C)/C=C/C=C(C)/C=C/C1=C(C)CC(O)CC1(C)C (stereo not given) at or above 5 µM?
Result :: label 1

Query :: // inclusive: TGI at least 5 µM? input: Fc1ccc(-c2sc(-c3cccs3)cc2Cc2cccs2)cc1
Result :: label 1

Query :: Could you verify whether the entry Nc1cc(=O)n(-c2ccccc2)c(=S)n1-c1ccccc1 shows TGI of no less than 5 µM?
Result :: label 1

Query :: Decide: is the reported value of TGI for O=c1oc2ccc(Br)cc2c(=O)n1-c1ccc(I)cc1F equal to or greater than 5 µM?
Result :: label 0

Query :: Check the entry CSc1ncc2c(n1)sc1c(=O)n(-c3ccccc3)cnc12 : does TGI equal or exceed 5 µM?
Result :: label 1

Query :: Hi team, for O=C(CSc1nc2ccc(I)cc2c(=O)n1Cc1ccccc1)NNC(=O)c1ccccc1 , is the recorded TGI at or above 5 µM?
Result :: label 1

Query :: Threshold query (TGI >= 5 µM) on CC(=O)C1=C(C)N(c2ccc(C)cc2)C2(O)C3=C(C(=O)c4ccccc4C3=O)C(O)=CC12Cl (stereo not given)
Result :: label 1

Query :: Does NNC(=O)N/N=C1\C(=O)N(c2ccc(Cl)c(Cl)c2)C(=O)C(=O)C1c1nc2ccccc2s1 (stereo not given) have a reported TGI of at least 5 µM?
Result :: label 1

Query :: Would you say Cc1cc(C(C)(C)C)cc(CNC2CCCCC2)c1O shows TGI at minimum 5 µM?
Result :: label 1

Query :: Given COc1ccc(C2CC3(c4ccccc4)ON=C(c4ccccc4)N3c3ccccc3S2)cc1 (stereo not given) , state whether its TGI is at least 5 µM.
Result :: label 1

Query :: Could you please find out whether COC(=O)[C@H](Cc1ccc(OC(C)(C)C)cc1)N[C@H](C)C(=O)N[C@@H](Cc1ccccc1)C(=O)OCc1ccccc1 has TGI that meets 5 µM or exceeds it?
Result :: label 1

Query :: Does the compound COc1ccc(C2=NN(C(=O)c3cc(OC)c(OC)c(OC)c3)C(c3ccc(N(C)C)cc3)C2)cc1 (stereo not given) have recorded TGI that is 5 µM or more?
Result :: label 1

Query :: Say whether CC(=O)NC(Cc1ccsc1)C(=O)O (stereo not given) shows TGI of 5 µM or more.
Result :: label 1

Query :: Can O=C1c2ccccc2-c2c1c1ccccc1c(=O)n2CCCNCCCCNCCCN1C(=O)c2ccccc2C2C(=O)c3ccccc3C21 (stereo not given) be said to have TGI at or above 5 µM?
Result :: label 0
